Below are IC50 measurements against Cyclin-dependent kinase 1 (Homo sapiens) drawn from the literature.

SMILES_NOTATION: COc1ccc(CCNC(=O)c2c(N)ncnc2Nc2ccc(OCc3ccccc3)c(Cl)c2)cc1
IC50: > 100 µM

SMILES_NOTATION: O=C(Nc1ccc(NC(=O)c2ccccn2)cc1)c1ccc(O)c([N+](=O)[O-])c1
IC50: > 30 µM

SMILES_NOTATION: NC(=O)c1c(-c2ccc(Oc3ccccc3)cc2)[nH]c(C(=O)c2c(F)cccc2F)c1N
IC50: > 10 µM

Entry OCCCNc1ncc(-c2cncc(Nc3cccc(Cl)c3)n2)o1 — recorded IC50 = > 10 µM

Entry CCn1cnc2c(NCc3nc4ccc(F)c(F)c4[nH]3)nc(N3CCCC[C@H]3CCO)nc21 — recorded IC50 = > 28 µM

Entry Oc1cc2cccc[n+]2c2c(Cl)cccc12.[Cl-] — recorded IC50 = > 1000 µM

Entry OCCCNc1cncc(-c2cnc(Nc3cccc(Cl)c3)cn2)c1 — recorded IC50 = > 10 µM

Entry COc1cc2c(Nc3ccc(NC(=O)c4ccccc4)cc3)nc(N)nc2cc1O — recorded IC50 = > 30 µM
